# target or test system: Human immunodeficiency virus type 1 reverse transcriptase (Human immunodeficiency virus 1, UniProt Q72547, L210W/M41L/T215Y)
# test protocol: Binding affinity to HIV1 LAI reverse transcriptase M41L/L210W/T215Y mutant
recorded endpoint: Kd

## Input I'd like to know its Kd. The molecule in question is Cc1cn([C@H]2C[C@H](O)[C@@H](COP(=O)(O)OP(=O)(O)OP(=O)(O)O)O2)c(=O)[nH]c1=O [DEOXYTHYMIDINE_TRIPHOSPHATE]
## Output 1200 nM

---

# target or test system: Human immunodeficiency virus type 1 reverse transcriptase (Human immunodeficiency virus 1, UniProt Q72547, K65R/L210W/M41L/T215Y)
# test protocol: Binding affinity to HIV1 LAI reverse transcriptase M41L/L210W/T215Y/K65R mutant assessed as ATP-mediated excision of zidovudine-monophosphate terminated DNA/DNA template/primer duplex chain at 100 uM by gel shift mobility assay
recorded endpoint: Kd (nM)
Field format: number, assumed nM, no unit text.

## Input // returns reported Kd for input Cc1cn([C@H]2C[C@H](N=[N+]=[N-])[C@@H](COP(=O)(O)O)O2)c(=O)[nH]c1=O [AZIDOTHYMIDINE MONOPHOSPHATE]
## Output 20.5

---

# test protocol: Binding affinity to HIV1 LAI reverse transcriptase M41L/L210W/T215Y/M184V/G333D mutant
# Set-up: species or system Human immunodeficiency virus 1
recorded endpoint: Kd (µM)
The response must be a number in µM with no trailing unit.

## Input What Kd value was documented for this molecule, Cc1cn([C@H]2C[C@H](O)[C@@H](COP(=O)(O)OP(=O)(O)OP(=O)(O)O)O2)c(=O)[nH]c1=O [DEOXYTHYMIDINE_TRIPHOSPHATE] ?
## Output 2.9

## Input Another molecule: Nc1ccn([C@@H]2CS[C@H](COP(=O)(O)OP(=O)(O)OP(=O)(O)O)O2)c(=O)n1 [LAMIVUDINE TRIPHOSPHATE]
## Output 17.8

## Input Quick one: Cc1cn([C@H]2C[C@H](N=[N+]=[N-])[C@@H](COP(=O)(O)OP(=O)(O)OP(=O)(O)O)O2)c(=O)[nH]c1=O [ZIDOVUDINE TRIPHOSPHATE]
## Output 3.81

## Input Repeat for the following molecule: Nc1ccn([C@H]2C[C@H](O)[C@@H](COP(=O)(O)OP(=O)(O)OP(=O)(O)O)O2)c(=O)n1 [DEOXYCYTIDINE TRIPHOSPHATE]
## Output 2.51

---

# target or test system: Human immunodeficiency virus type 1 reverse transcriptase (Human immunodeficiency virus 1, UniProt Q72547, L210W/M41L/T215Y)
# test protocol: Binding affinity to HIV1 LAI reverse transcriptase M41L/L210W/T215Y mutant assessed as ATP-mediated excision of zidovudine-monophosphate terminated DNA/DNA template/primer duplex chain at 100 uM by gel shift mobility assay
recorded endpoint: pKd
pKd (log units): -log10 of the concentration in mol/L.

## Input Which pKd value is on record for Cc1cn([C@H]2C[C@H](N=[N+]=[N-])[C@@H](COP(=O)(O)O)O2)c(=O)[nH]c1=O [AZIDOTHYMIDINE MONOPHOSPHATE] ?
## Output 7.73

---

# test protocol: Binding affinity to HIV1 LAI reverse transcriptase M41L/L210W/T215Y/M184V/G333D mutant assessed as ATP-mediated excision of zidovudine-monophosphate terminated DNA/DNA template/primer duplex chain at 100 uM by gel shift mobility assay
# Design: species or system Human immunodeficiency virus 1
recorded endpoint: Kd (nM)
Please give a number only; it is taken to be in nM.

## Input I have this compound here, Cc1cn([C@H]2C[C@H](N=[N+]=[N-])[C@@H](COP(=O)(O)O)O2)c(=O)[nH]c1=O [AZIDOTHYMIDINE MONOPHOSPHATE] , and I need its recorded Kd.
## Output 46.2

Where these numbers come from: ChEMBL document CHEMBL1153554
